Data provenance is paper PMC5552691.

Could you please report measured CC50 at 24 h for the items listed next?
# EXPERIMENTAL DETAILS: Cytotoxicity assay (MTT) in VERO cells
# Assay type: cell-based
# CONDITION SET: African green monkey, VERO cells (ATCC CCL-81); 24 hours, MTT; 95% confidence limits in square brackets
# Description: The cytotoxic effect of these compounds was also evaluated in mammal cell cultures and their CC50 values calculated and depicted in Table 2. We used the cell lines VERO (ATCC:CCL-81) and gingival human fibroblasts (kindly provided by Dra. María Dolores Farfán from Facultad de Odontología, Universidad Nacional Autónoma de México). […] After incubation time, we measured the cell viability by using MTT (3-(4,5-Dimethyl-2-thiazolyl)-2,5-diphenyl-2H-tetrazolium bromide; Roche Diagnostics) method. […]
# number only, unit mM dropped from output

## Task Identify measured CC50 at 24 h associated with Cc1ccc2nc([S+]([O-])Cc3nccc(OCC(F)(F)F)c3C)[nH]c2c1 (stereo not drawn)
## Result 4.7

## Task Consider the molecule COc1ccc2[nH]c([S+]([O-])Cc3ncc(C)c(OC)c3C)nc2c1 (stereo not drawn) [Omeprazole, omeprazole, reference compound] . State its measured CC50 at 24 h.
## Result 14

## Task Consider the molecule COc1c(C)cnc(C[S+]([O-])c2nc3ccc(C)cc3[nH]2)c1C (stereo not drawn) . State its measured CC50 at 24 h.
## Result 8
